Collected pIC50 values appear next to each entry.
# SYSTEM: human TLR8 (Homo sapiens (Human), UniProt Q9NR97)
# Sequence (Q9NR97 27-1041): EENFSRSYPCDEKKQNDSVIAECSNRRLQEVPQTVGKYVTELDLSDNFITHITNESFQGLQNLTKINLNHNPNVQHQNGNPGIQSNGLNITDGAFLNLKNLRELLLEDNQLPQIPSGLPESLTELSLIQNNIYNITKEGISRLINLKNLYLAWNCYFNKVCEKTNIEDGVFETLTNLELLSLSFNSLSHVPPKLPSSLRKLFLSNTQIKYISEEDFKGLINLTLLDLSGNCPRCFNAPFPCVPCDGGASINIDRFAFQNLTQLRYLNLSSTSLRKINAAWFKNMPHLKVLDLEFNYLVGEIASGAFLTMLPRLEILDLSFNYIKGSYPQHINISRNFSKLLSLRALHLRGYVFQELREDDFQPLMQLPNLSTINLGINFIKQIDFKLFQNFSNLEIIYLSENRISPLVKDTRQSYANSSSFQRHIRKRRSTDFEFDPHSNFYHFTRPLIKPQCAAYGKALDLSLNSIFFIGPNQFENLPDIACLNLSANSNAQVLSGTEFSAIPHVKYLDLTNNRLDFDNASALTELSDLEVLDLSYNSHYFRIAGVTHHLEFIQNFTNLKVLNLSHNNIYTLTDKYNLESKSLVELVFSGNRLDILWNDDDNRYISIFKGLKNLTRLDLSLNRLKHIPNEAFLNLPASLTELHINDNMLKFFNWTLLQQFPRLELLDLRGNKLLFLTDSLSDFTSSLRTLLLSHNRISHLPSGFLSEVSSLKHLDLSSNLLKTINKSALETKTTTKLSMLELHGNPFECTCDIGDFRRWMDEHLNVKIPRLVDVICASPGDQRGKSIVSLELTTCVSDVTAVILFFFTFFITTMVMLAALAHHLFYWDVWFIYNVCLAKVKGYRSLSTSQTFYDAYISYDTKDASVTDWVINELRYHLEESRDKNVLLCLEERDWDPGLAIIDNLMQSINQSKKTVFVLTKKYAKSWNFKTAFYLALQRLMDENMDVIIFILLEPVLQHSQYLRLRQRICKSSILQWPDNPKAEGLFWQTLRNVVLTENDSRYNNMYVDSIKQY
# PROCEDURE_TEXT: TLR8 inhibition reporter assay (HEK-Blue cells, SEAP reporter, R848 stimulation);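 also: compounds tested from 0.05 nM to 50 µM, 22 h at 37 °C, SEAP measured with HEK-Blue Detection, inhibition relative to agonist plus DMSO versus a known inhibitor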
# EXPERIMENTAL_PARAMETERS: read-out: TLR8 IC50, HEK-Blue cells, R848 15.9 μM
Keep it numeric: pIC50 is minus log10 of the concentration in mol/L.

| COMPOUND | READING |
| --- | --- |
| Cc1cc(-c2[nH]c3ccc(C4CCN(CC5(C)COC5)CC4)cc3c2C(C)C)ccn1 | 8.43 |
| Cc1cc(-c2[nH]c3cc(F)c(C4CCN(CC(=O)N(C)C)CC4)cc3c2C(C)C)cc(C)n1 | 7.94 |
| CCc1c(-c2ccnc(C)c2)[nH]c2ccc(C3CCN(CC(O)CN(C)C(C)C)CC3)cc12 (stereo not shown) | 8.54 |
| Cc1cc(-c2[nH]c3ccc(C4CCN(C(CF)CF)CC4)cc3c2C(C)C)ccn1 | 7.55 |
| CNCCN1CCC(c2ccc3[nH]c(-c4ccnc(C)c4)c(C)c3c2)CC1 | 7.13 |
| Cc1nccc(-c2[nH]c3ccc(C4CCN(C5CCN(C(C)C)CC5)CC4)cc3c2C)c1C | 7.35 |

The reported value for Cc1cc(-c2[nH]c3ccc(C4CCN(CC5CCCCC5)CC4)cc3c2C(C)C)ccn1 in terms of pIC50 is 7.47

The reported value for Cc1cc(-c2[nH]c3ccc(C4CCN(C(=O)C(=O)N(C)CCN(C)C)CC4)cc3c2C(C)C)cc(C)n1 in terms of pIC50 is 8.24

The reported value for Cc1cc(-c2[nH]c3cc(F)c(C4CCN(C5CCOCC5)CC4)cc3c2C(C)C)cc(C)n1 in terms of pIC50 is 7.94

The reported value for Cc1cc(-c2[nH]c3ccc(C4CCN(C5CCN(C(C)C)CC5)CC4)cc3c2C)c(C)cn1 in terms of pIC50 is 8.62

The reported value for Cc1cc(-c2[nH]c3ccc(C4CCN(CC(O)C(C)(C)C)CC4)cc3c2C(C)C)cc(C)n1 (stereo not shown) in terms of pIC50 is 8.33

The reported value for Cc1cc(-c2[nH]c3ccc(C4CCN(CC(O)C(C)C)CC4)cc3c2C(C)C)cc(C)n1 (stereo not shown) [Example 855] in terms of pIC50 is 8.82

The reported value for Cc1nc[nH]c1CN1CCC(c2ccc3[nH]c(-c4ccnc(N)c4)c(C(C)C)c3c2)CC1 in terms of pIC50 is 7.33

The reported value for Cc1cc(-c2[nH]c3ccc(C4CCN(C=O)CC4)cc3c2C(C)C)cc(C)n1 in terms of pIC50 is 6.92

The reported value for Cc1cc(-c2[nH]c3ccc(C4CCN(C(=O)C(=O)NCCc5ccncc5)CC4)cc3c2C(C)C)cc(C)n1 in terms of pIC50 is 7.05

The reported value for CC(=O)N1CCC(c2cc3c(C(C)C)c(-c4cc(C)nc(C)c4)[nH]c3cc2F)CC1 in terms of pIC50 is 7.20

Data credit: patent US10660877B2
